testedTarget: T1, Lrp6E3E4 domain (Homo sapiens, UniProt O75581)
T1 sequence (O75581 631-1244 limits assumed): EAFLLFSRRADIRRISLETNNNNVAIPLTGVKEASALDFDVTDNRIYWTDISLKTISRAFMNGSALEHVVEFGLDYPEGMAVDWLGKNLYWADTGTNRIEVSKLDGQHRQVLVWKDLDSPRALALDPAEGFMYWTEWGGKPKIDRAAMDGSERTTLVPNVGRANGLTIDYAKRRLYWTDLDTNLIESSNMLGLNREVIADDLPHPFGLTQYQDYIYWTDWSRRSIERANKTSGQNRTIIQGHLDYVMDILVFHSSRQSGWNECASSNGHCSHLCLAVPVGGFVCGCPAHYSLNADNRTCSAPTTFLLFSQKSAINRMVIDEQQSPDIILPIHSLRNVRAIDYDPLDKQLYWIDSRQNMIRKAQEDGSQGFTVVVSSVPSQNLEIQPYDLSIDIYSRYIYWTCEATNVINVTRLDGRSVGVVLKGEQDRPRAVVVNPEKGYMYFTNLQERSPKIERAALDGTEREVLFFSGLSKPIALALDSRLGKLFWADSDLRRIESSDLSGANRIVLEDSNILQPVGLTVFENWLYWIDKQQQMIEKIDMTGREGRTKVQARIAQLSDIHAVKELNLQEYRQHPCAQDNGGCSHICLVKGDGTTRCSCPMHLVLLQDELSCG
protocolNotes: Bio-layer interferometry (Octet) binding kinetics of VHH26 constructs
experimentalContext: SEC fraction C3/G3 (parental D3); 1:1 binding model
Provide the recorded koff for the entries that follow.
Numbers only.

molecule="VHH26-H5: humanized variant of LRP6 binding VHH26, SEQ ID NO: 23 (protein, VHH26_H5) VHH: EVQLVESGGGLVQPGGSLRLSCAGSGRIFAIYDIAWYRQAPGKGREWVAMIRPVVTEIDYADSVKGRFTISRDNSKKTVYLQMNSLRAEDTAVYYCNAKRPWGSRDEYWGQGTTVTVSS" measurementname=koff testvalue=1.47E−02
molecule="VHH26-H1: humanized variant of LRP6 binding VHH26, SEQ ID NO: 19 (protein, VHH26_H1) VHH: EVQLLESGGGLVQPGGSLRLSCAASGRIFAIYDIAWVRQAPGKGLEWVSMIRPVVTEIDYADSVKGRFTISRDNSKNTLYLQMNSLRAEDTAVYYCAKKRPWGSRDEYWGQGTTVTVSS" measurementname=koff testvalue=3.98E−03
molecule="VHH26-H2: humanized variant of LRP6 binding VHH26, SEQ ID NO: 20 (protein, VHH26_H2) VHH: EVQLVESGGGLVQPGGSLRLSCAGSGRIFAIYDIAWYRQAPGKGLEWVAMIRPVVTEIDYADSVKGRFTISRDNSKNTVYLQMNSLRAEDTAVYYCNAKRPWGSRDEYWGQGTTVTVSS" measurementname=koff testvalue=6.84E−02
molecule="VHH26-H4: humanized variant of LRP6 binding VHH26, SEQ ID NO: 22 [VHH26-H4] (protein, VHH26_H4) VHH: EVQLVESGGGLVQPGGSLRLSCAGSGRIFAIYDIAWYRQAPGKGRELVAMIRPVVTEIDYADSVKGRFTISRDNSKNTVYLQMNSLRAEDTAVYYCNAKRPWGSRDEYWGQGTTVTVSS" measurementname=koff testvalue=5.56E−03
molecule="VHH26-H6: humanized variant of LRP6 binding VHH26, SEQ ID NO: 24 [VHH26-H6] (protein, VHH26_H6) VHH: EVQLVESGGGLVQPGGSLRLSCAGSGRIFAIYDIAWYRQAPGKGRELVAMIRPVVTEIDYADSVKGRFTISRDNSKKTVYLQMNSLRAEDTAVYYCNAKRPWGSRDEYWGQGTTVTVSS" measurementname=koff testvalue=8.36E−03

Take each entry in turn and give its koff.
1. VHH26 (parental): parental camelid LRP6 binding VHH, SEQ ID NO: 25 (protein, VHH26 (parental)) VHH: DVQLVESGGGLVQAGGSLRLACAGSGRIFAIYDIAWYRHPPGNQRELVAMIRPVVTEIDYADSVKGRFTISRNNAMKTVYLQMNNLKPEDTAVYYCNAKRPWGSRDEYWGQGTQVTVSS
2. VHH26-H3: humanized variant of LRP6 binding VHH26, SEQ ID NO: 21 (protein, VHH26_H3) VHH: EVQLVESGGGLVQPGGSLRLSCAGSGRIFAIYDIAWYRQAPGKGREWVAMIRPVVTEIDYADSVKGRFTISRDNSKNTVYLQMNSLRAEDTAVYYCNAKRPWGSRDEYWGQGTTVTVSS

Reply:
1.82E−02
7.75E−03
